GI50 values for the compounds below.
- Tested on: SK-OV-3 ovarian
- measurementProtocol: NCI tumour cell line growth inhibition, 48 h

Consider the following illustrative entries.
{"compound": "CNCC1CCn2c(c(C3=C(c4cn(C)c5ccccc45)C(=O)NC3=O)c3ccccc32)C1 (centres undefined)", "testSystem": "SK-OV-3 ovarian", "GI50": "5.18 µM"}
{"compound": "COc1ccc2c(c1)O/C(=C\\c1ccc([N+](=O)[O-])s1)C2=O", "testSystem": "SK-OV-3 ovarian", "GI50": "> 22.7 µM"}
{"compound": "Cn1c(=O)c2[nH]cnc2n(C)c1=O.[CH2-]C(Cc1cccc2cc(C(=O)O)c(=O)oc12)OC.[Hg+2].[OH-] (centres undefined)", "testSystem": "SK-OV-3 ovarian", "GI50": "> 44 µM"}
{"compound": "O=C(Nc1ccc(N2CCNCC2)cn1)c1[nH]ncc1Nc1ncnc2sc3c(c12)CCC3", "testSystem": "SK-OV-3 ovarian", "GI50": "16.3 µM"}
{"compound": "CCCCCCCCCCCCCCCC(N)c1ccccc1 (centres undefined)", "testSystem": "SK-OV-3 ovarian", "GI50": "1.58 µM"}

Give the measured GI50 of CN1CCN(Cc2ccc(NC(=O)c3cncc(C#Cc4ncc5ccccn45)c3)cc2C(F)(F)F)CC1 .
1.33 µM

Give the measured GI50 of O=C1/C(=C/c2cccc(F)c2)CN(C(=O)C(Cl)Cl)C/C1=C\c1cccc(F)c1 .
0.6 µM

Give the measured GI50 of COC(=O)CCc1c(/C=C2\N=C(c3ccc[nH]3)C=C2OC)[nH]c(C)c1C(=O)OCc1ccccc1 .
1.67 µM

Give the measured GI50 of Nc1cc(N)c2nc(-c3ccccc3)c(Oc3ccc(Cl)c(Cl)c3)nc2c1 .
23.9 µM

---

- System: OVCAR-3 ovarian
- measurementProtocol: NCI tumour cell line growth inhibition, 48 h
measuredParameter: TGI

Consider the following illustrative entries.
{"compound": "O=c1[nH]c(Br)nc2c(N3CCCCC3)c[nH]c12", "measuredParameter": "TGI", "readoutValue": "> 100 µM"}
{"compound": "O=C(N1CCN(c2ccccc2)CC1)N(C(=O)C1(c2ccc(Cl)cc2)CCCC1)S(=O)(=O)c1ccccc1", "measuredParameter": "TGI", "readoutValue": "82.6 µM"}
{"compound": "C[C@]12CC[C@H]3[C@@H](CCC4=CC(=O)CC[C@@]43C)[C@@H]1CC[C@@H]2OC(=O)c1cccc2c(=O)c3ccccc3[nH]c12", "measuredParameter": "TGI", "readoutValue": "> 100 µM"}

Pending compound:
Give the measured TGI of OCC1(CNc2cc(Cl)ncn2)CCC1 .
> 100 µM

---

TGI values for the molecules below.
- Test system: PC-3 prostate
- measurementProtocol: NCI tumour cell line growth inhibition, 48 h

Consider the following illustrative entries.
{"molecule": "O=C(N1CCN(c2ccccc2)CC1)N(C(=O)C1(c2ccc(Cl)cc2)CCCC1)S(=O)(=O)c1ccccc1", "testSystem": "PC-3 prostate", "TGI": "76.1 µM"}
{"molecule": "COc1cccc(-c2cc(=O)c3cc(N4CCCC4)ccc3[nH]2)c1", "testSystem": "PC-3 prostate", "TGI": "> 10 µM"}
{"molecule": "N#Cc1c(Nc2ccccc2)[n+]([O-])c2ccc(Cl)cc2[n+]1[O-]", "testSystem": "PC-3 prostate", "TGI": "> 100 µM"}
{"molecule": "CC(=O)NC1=CC(=O)C=C(Cl)C1=O", "testSystem": "PC-3 prostate", "TGI": "> 100 µM"}
{"molecule": "NNC(=O)CSc1nnc(CCCCCCCCc2nnc(SCC(=O)NN)o2)o1", "testSystem": "PC-3 prostate", "TGI": "> 100 µM"}

Give the measured TGI of Nc1nc(Cl)c2ncn(Cc3ccc(-c4ccc(CCl)cc4)cc3)c2n1 .
> 100 µM

Give the measured TGI of CCOC(=O)c1c(CN2CCOCC2)n(Cc2ccccc2)c2c1cc(O)c1nc(C)c(C)nc12 .
92.4 µM

Give the measured TGI of Cn1c2c(c3c(=O)[nH]ncc31)CCCc1ccccc1-2 .
> 100 µM

Give the measured TGI of CCO/N=C(/CC)c1ccc(Br)s1 .
> 100 µM

Give the measured TGI of COc1ccc(/C=C2\CC3C4CC=C5C[C@@H](O)CC[C@]5(C)C4CC[C@]3(C)C2=O)cc1OC (stereo not given in full) .
> 100 µM

Origin of values: PubChem BioAssay (NCI)
